target: Δ^5 -Lipoxygenase (Rattus norvegicus, UniProt P12527); construct: using rat basophil leukemia cells (RBL-1 cells) as the enzyme source; endogenous in cells; host or cells: RBL-1 (rat basophil leukemia) cells, 49,300×g supernatant of homogenate; assay: Δ^5 -Lipoxygenase Inhibition; assay type: biochemical; settings: at 10^-5 M; RBL-1 cell supernatant
Sequence (P12527 whole entry, stated change not applied): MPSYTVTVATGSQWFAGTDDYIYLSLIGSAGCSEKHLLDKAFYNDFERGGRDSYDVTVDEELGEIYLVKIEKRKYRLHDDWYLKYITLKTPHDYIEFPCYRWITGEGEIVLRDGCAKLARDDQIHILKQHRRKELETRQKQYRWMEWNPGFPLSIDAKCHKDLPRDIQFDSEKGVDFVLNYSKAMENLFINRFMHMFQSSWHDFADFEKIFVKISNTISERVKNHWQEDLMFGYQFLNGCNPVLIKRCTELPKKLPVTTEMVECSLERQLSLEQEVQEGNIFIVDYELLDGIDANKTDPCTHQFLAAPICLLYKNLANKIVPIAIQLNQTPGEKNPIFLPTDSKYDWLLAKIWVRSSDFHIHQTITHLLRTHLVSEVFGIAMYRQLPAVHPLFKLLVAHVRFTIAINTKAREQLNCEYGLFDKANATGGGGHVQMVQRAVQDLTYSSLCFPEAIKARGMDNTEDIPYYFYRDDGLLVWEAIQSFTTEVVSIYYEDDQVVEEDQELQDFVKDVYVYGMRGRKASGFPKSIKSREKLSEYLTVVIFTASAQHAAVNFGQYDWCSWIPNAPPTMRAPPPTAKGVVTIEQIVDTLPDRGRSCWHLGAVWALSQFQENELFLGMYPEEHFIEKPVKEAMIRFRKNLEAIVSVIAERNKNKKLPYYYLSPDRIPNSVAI
Below, each entry is listed with its recorded inhibition at 10 µM.
Supply the numeric figure in %, leaving out any unit text.

Here are 5 compounds together with their reported answers.
[
  {
    "compound": "CC(C)c1ccc2ncn(/C=C/C(=O)NCCSc3ccncc3)c(=O)c2c1",
    "inhibition at 10 µM / %": 56
  },
  {
    "compound": "CC(C)c1ccc2ncn(/C=C/C(=O)NCCCCc3ccccn3)c(=O)c2c1 [drawing 17]",
    "inhibition at 10 µM / %": 100
  },
  {
    "compound": "CC(C)c1ccc2ncn(/C=C/C(=O)NCCCCc3cccnc3)c(=O)c2c1 [drawing 12]",
    "inhibition at 10 µM / %": 84
  },
  {
    "compound": "CC(C)c1ccc2ncn(/C=C/C(=O)NCCCCn3ccnc3)c(=O)c2c1 [drawing 15]",
    "inhibition at 10 µM / %": 0
  },
  {
    "compound": "CC(C)c1ccc2ncn(/C=C/C(=O)NCCCNc3cccnc3)c(=O)c2c1",
    "inhibition at 10 µM / %": 10
  }
]

Name the recorded inhibition at 10 µM for `CC(C)c1ccc2ncn(/C=C/C(=O)NCCCCCCNc3ccccn3)c(=O)c2c1` . 25

---

Below, each entry is listed with its recorded inhibition at 0.1 µM.
Target: TXA2 synthase (Homo sapiens)
Construct: using microsomal fractions from human platelets as enzyme source; from tissue; host or cells: human platelets, microsomal fraction
Sequence (P24557 1-533): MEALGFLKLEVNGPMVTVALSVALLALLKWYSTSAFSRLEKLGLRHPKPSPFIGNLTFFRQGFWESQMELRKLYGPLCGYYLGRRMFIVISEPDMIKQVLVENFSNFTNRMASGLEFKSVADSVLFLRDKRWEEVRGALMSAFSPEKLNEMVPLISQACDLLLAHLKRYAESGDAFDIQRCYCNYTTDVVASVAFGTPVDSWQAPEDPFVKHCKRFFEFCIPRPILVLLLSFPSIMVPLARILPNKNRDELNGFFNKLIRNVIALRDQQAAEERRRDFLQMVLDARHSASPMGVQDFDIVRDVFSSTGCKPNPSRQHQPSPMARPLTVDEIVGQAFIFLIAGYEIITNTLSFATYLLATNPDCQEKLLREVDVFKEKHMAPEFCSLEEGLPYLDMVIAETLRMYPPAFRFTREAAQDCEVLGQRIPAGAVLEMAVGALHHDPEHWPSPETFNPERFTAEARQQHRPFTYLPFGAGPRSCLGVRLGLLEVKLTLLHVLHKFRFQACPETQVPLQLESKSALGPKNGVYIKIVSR
Assay: Thromboxane Synthase Inhibition, In Vitro
Assay type: biochemical
Details: at 10^-7 M; human platelet microsomes
// unit must come after the numeric part

Here are 5 compounds together with their reported answers.
[
  {
    "compound": "CC(C)c1ccc2ncn(/C=C/C(=O)NCCCCn3ccnc3)c(=O)c2c1 [drawing 15]",
    "inhibition at 0.1 µM": "72%"
  },
  {
    "compound": "CC(C)c1ccc2ncn(/C=C/C(=O)NCCCCOc3cccnc3)c(=O)c2c1 [drawing 14]",
    "inhibition at 0.1 µM": "70%"
  },
  {
    "compound": "CC(C)c1ccc2ncn(/C=C/C(=O)NCCSc3ccncc3)c(=O)c2c1",
    "inhibition at 0.1 µM": "31%"
  },
  {
    "compound": "CC(C)c1ccc2ncn(/C=C/C(=O)N(C)CCCCc3cccnc3)c(=O)c2c1",
    "inhibition at 0.1 µM": "48%"
  },
  {
    "compound": "CC(C)c1cc(C(C)C)c2ncn(/C=C/C(=O)NCCCCc3cccnc3)c(=O)c2c1",
    "inhibition at 0.1 µM": "51%"
  }
]

// moving on: another record for inhibition at 0.1 µM
Name the recorded inhibition at 0.1 µM for CC(C)c1ccc2ncn(/C=C/C(=O)NCCCCc3cccnc3)c(=O)c2c1 [drawing 12] . 48%
